Source: PubChem BioAssay (NCI)

System: HCT-116 colon
Assay: NCI tumour cell line growth inhibition, 48 h
reportedMetric: TGI

>  <compound>
COc1cc([C@H]2Oc3c(c(O)cc4oc(-c5ccccc5)cc(=O)c34)O[C@@H]2CO)ccc1O

>  <TGI>
> 100 µM

$$$$

// below: TGI requested for another compound
Query string: Using known records, supply TGI for O=C(NNS(=O)(=O)c1cc(C(F)(F)F)cc(C(F)(F)F)c1)c1cnn(-c2ccc(Cl)cc2)c1C(F)(F)F
Result string: 29.6 µM

###

Test system: CCRF-CEM leukemia
Experiment: NCI tumour cell line growth inhibition, 48 h
reportedMetric: TGI

>  <compound>
CN(Cc1cnc2nc(N)nc(N)c2n1)c1ccc(C(=O)NC(CCC(=O)O)C(=O)O)cc1 (stereo unspecified)

>  <TGI>
> 100 µM

$$$$
>  <compound>
Cc1n[nH]c(=O)n1N=C(c1ccccc1)c1ccccc1

>  <TGI>
> 100 µM

$$$$
>  <compound>
COC/C=C\[C@@]1(O)CCCC[C@@H]1CC(OC)OC

>  <TGI>
> 64.3 µM

$$$$
>  <compound>
Cc1cc2c(-c3ccccc3)cc(=O)[nH]c2cc1N

>  <TGI>
> 100 µM

$$$$
>  <compound>
O=C1OC(CN2CCN(c3ccccc3)CC2)CN1C(=S)Nc1ccccc1 (stereo unspecified)

>  <TGI>
> 100 µM

$$$$

// below: TGI requested for another compound
Query string: Using known records, supply TGI for Nc1c(C(=O)c2ccccc2)[nH]c(NCc2ccccc2)c1C(=S)Nc1ccccc1
Result string: > 100 µM

###

This listing pairs compounds with measured TGI.
System: UACC-257 melanoma
Assay: NCI tumour cell line growth inhibition, 48 h
Only the number, expressed in µM, is required.

>  <compound>
CC(=O)N1CC(F)(F)c2c(Sc3ncc(N4CCC5(CC4)COC[C@H]5N)nc3N)cccc21

>  <reportedMetric>
TGI

>  <unitSymbol>
µM

>  <recordedResult>
62

$$$$

Query string: Using known records, supply TGI for C=C1C(C)C2C(Cc3ccccc3)NC(=O)C23C(OC(C)=O)/C=C/C(C)(O)CC(C)C/C=C/C3C1O (stereo not given)
Result string: 86.5

###

System: SW-620 colon
Assay: NCI tumour cell line growth inhibition, 48 h
This listing pairs molecules with measured TGI.

Answered examples (5):
>  <molecule>
O=c1c([Se]c2coc3ccccc3c2=O)coc2ccccc12

>  <TGI>
34.3 µM

$$$$
>  <molecule>
C=C(Cl)C(Cl)(CBr)CCC(Cl)C(C)(C)Cl (stereo not drawn)

>  <TGI>
4.75 µM

$$$$
>  <molecule>
CN(/N=C\c1ccc2ccccc2c1)C1=NCCCCN1

>  <TGI>
37.8 µM

$$$$
>  <molecule>
COc1cc2c(cc1C)n(O)c(C)c(C(=O)C/C(=N/NC(=O)C[N+](C)(C)C)C(=O)Nc1cccc(Cl)c1C)[n+]2=O

>  <TGI>
> 100 µM

$$$$
>  <molecule>
CCC1(C)N=C(C(N)=O)c2ncn(N=C(C)C)c2N1 (stereo not drawn)

>  <TGI>
> 100 µM

$$$$

Query string: State TGI on SW-620 colon. Entry: CCNCC(O)c1ccc(N)c([N+](=O)[O-])c1 (stereo not drawn)
Result string: > 100 µM

Query string: State TGI on SW-620 colon. Entry: Cn1cnc([N+](=O)[O-])c1Sc1ncnc2c1ncn2C1OC(CO)C(O)C1O (stereo not drawn)
Result string: > 100 µM

Query string: State TGI on SW-620 colon. Entry: Cc1cc(C)nc(NS(=O)(=O)c2ccc(NC(=O)c3cccc4cc5ccccc5nc34)cc2)n1
Result string: > 100 µM

###

System: SK-OV-3 ovarian
Assay: NCI tumour cell line growth inhibition, 48 h
This listing pairs compounds with measured TGI.

Answered examples (5):
>  <compound>
N#Cc1nc(-c2ccccc2)oc1S(=O)(=O)N1CCOCC1

>  <assayedSystem>
SK-OV-3 ovarian

>  <TGI>
> 100 µM

$$$$
>  <compound>
S=C1C=C(c2ccccc2)Sc2ccccc2N1

>  <assayedSystem>
SK-OV-3 ovarian

>  <TGI>
> 100 µM

$$$$
>  <compound>
C=C(Cl)C(Cl)(CBr)CCC(Cl)C(C)(C)Cl (stereo unspecified)

>  <assayedSystem>
SK-OV-3 ovarian

>  <TGI>
70.8 µM

$$$$
>  <compound>
Nc1c(C(=O)c2ccccc2)[nH]c(NCc2ccccc2)c1C(=S)Nc1ccccc1

>  <assayedSystem>
SK-OV-3 ovarian

>  <TGI>
> 100 µM

$$$$
>  <compound>
CC(=O)Oc1cccc2c1C(=O)c1c(OC(C)=O)cc(C)cc1C2=O

>  <assayedSystem>
SK-OV-3 ovarian

>  <TGI>
> 100 µM

$$$$

Query string: Using known records, supply TGI for COC/C=C\[C@@]1(O)CCCC[C@@H]1CC(OC)OC
Result string: > 100 µM

Query string: Using known records, supply TGI for Cc1cn(C2CC(N=[N+]=[N-])C(CO[Si](C)(C)C(C)(C)C)O2)c(=O)[nH]c1=O (stereo unspecified)
Result string: 37.1 µM

Query string: Using known records, supply TGI for CCOC(=O)C12CC1(C(=O)OCC)C1CCC2C1 (stereo unspecified)
Result string: > 100 µM

Query string: Using known records, supply TGI for O=C1OC(CN2CCN(c3ccccc3)CC2)CN1C(=S)Nc1ccccc1 (stereo unspecified)
Result string: > 100 µM

Query string: Using known records, supply TGI for CC(=O)OC[C@@]12C[C@H]3C(=O)C(C)(C)C[C@H]3[C@]1(C)[C@@H](OC(C)=O)[C@]1(O)[C@H]([C@@H](OC(=O)c3ccccc3)[C@@H](C)[C@H]1OC(C)=O)[C@H]2OC(C)=O
Result string: > 20 µM

###

System: HCT-15 colon
Assay: NCI tumour cell line growth inhibition, 48 h
reportedMetric: TGI

Answered examples (4):
>  <molecule>
Nc1cccc(OCc2nc(N)nc(N)c2-c2ccc(Cl)cc2)c1

>  <assayedSystem>
HCT-15 colon

>  <TGI>
> 100 µM

$$$$
>  <molecule>
CCNCC(O)c1ccc(N)c([N+](=O)[O-])c1 (stereo not given)

>  <assayedSystem>
HCT-15 colon

>  <TGI>
> 100 µM

$$$$
>  <molecule>
Cn1c(=O)c2[nH]c(COc3ccc(C(C)(C)C)cc3)nc2n(C)c1=O

>  <assayedSystem>
HCT-15 colon

>  <TGI>
> 100 µM

$$$$
>  <molecule>
CC(=O)Oc1cccc2c1C(=O)c1c(OC(C)=O)cc(C)cc1C2=O

>  <assayedSystem>
HCT-15 colon

>  <TGI>
> 100 µM

$$$$

// below: TGI requested for another molecule
Query string: Using known records, supply TGI for COC(=O)C1=C(C(=O)OC)C2(C(=O)OC)OC1(OC)C(C1(C(=O)OC)C(C(=O)OC)=C1C(=O)OC)=C2C(=O)OC (stereo not given)
Result string: > 100 µM

###

This listing pairs compounds with measured TGI.
System: NCI-H23 lung
Assay: NCI tumour cell line growth inhibition, 48 h
Where a SMILES comes first, the peptide text is derived from it. The star is where a group is joined. Cbz = O=C(OCc1ccccc1)*

Answered examples (4):
>  <compound>
COC(=O)C1(Cc2cccc(Cl)c2)CCCCCCN1C(=O)c1ccccc1 (stereo not drawn)

>  <TGI>
51.1 µM

$$$$
>  <compound>
CCC1(C)N=C(C(N)=O)c2ncn(N=C(C)C)c2N1 (stereo not drawn)

>  <TGI>
> 100 µM

$$$$
>  <compound>
CC(=O)/C(C)=N/N/C(N)=N\S(=O)(=O)c1cc(C(=O)Nc2ccccc2)c(Cl)cc1SCc1ccccc1

>  <TGI>
> 100 µM

$$$$
>  <compound>
CCOC(=O)C(C)NC(=O)C(C)NC(=O)C(C)NC(=O)C(C)NC(=O)C(C)NC(=O)C(C)NC(=O)C(C)NC(=O)OCc1ccccc1 (stereo not drawn) (Cbz-AAAAAAA-OEt; configuration not given here)

>  <TGI>
> 100 µM

$$$$

Query string: Using known records, supply TGI for Cn1cnc([N+](=O)[O-])c1Sc1ncnc2c1ncn2C1OC(CO)C(O)C1O (stereo not drawn)
Result string: > 100 µM

Query string: Using known records, supply TGI for Cc1ccc(NC(=O)C(=O)Cc2nc3ccccc3o2)c(C)c1
Result string: > 100 µM

###

System: HCT-15 colon
Assay: NCI tumour cell line growth inhibition, 48 h
reportedMetric: TGI (µM)
Only the number, expressed in µM, is required.

Answered examples (4):
>  <molecule>
O=C(NNS(=O)(=O)c1cc(C(F)(F)F)cc(C(F)(F)F)c1)c1cnn(-c2ccc(Cl)cc2)c1C(F)(F)F

>  <assayedSystem>
HCT-15 colon

>  <TGI / µM>
37.5

$$$$
>  <molecule>
C#Cc1ccc(NC(=O)c2ccc(/C=C/C(=O)c3nccn3C)cc2)cc1

>  <assayedSystem>
HCT-15 colon

>  <TGI / µM>
1.6

$$$$
>  <molecule>
COc1cc2c(cc1OC)C(Cl)C(c1cc(OC)c(OC)c(OC)c1)=C2Cl (stereo unspecified)

>  <assayedSystem>
HCT-15 colon

>  <TGI / µM>
49.4

$$$$
>  <molecule>
CCN(CC)CCNc1ccc(C)c2sc3ccc(O)cc3c(=O)c12

>  <assayedSystem>
HCT-15 colon

>  <TGI / µM>
2.72

$$$$

// below: TGI requested for another molecule
Query string: Using known records, supply TGI for COc1cc(CC2c3cc(OC)c(OC)cc3CCN2C)c(Oc2cc3c(cc2OC)-c2c(OC)c(OC)c(OC)c4c2C(C3)N(C)CC4)cc1OC (stereo unspecified)
Result string: 23.4
